Values compiled from ChEMBL document CHEMBL5291721.

targetSystem: D(3) dopamine receptor (Homo sapiens, UniProt P35462); also: assay procedure not described here
Sequence (P35462 whole entry): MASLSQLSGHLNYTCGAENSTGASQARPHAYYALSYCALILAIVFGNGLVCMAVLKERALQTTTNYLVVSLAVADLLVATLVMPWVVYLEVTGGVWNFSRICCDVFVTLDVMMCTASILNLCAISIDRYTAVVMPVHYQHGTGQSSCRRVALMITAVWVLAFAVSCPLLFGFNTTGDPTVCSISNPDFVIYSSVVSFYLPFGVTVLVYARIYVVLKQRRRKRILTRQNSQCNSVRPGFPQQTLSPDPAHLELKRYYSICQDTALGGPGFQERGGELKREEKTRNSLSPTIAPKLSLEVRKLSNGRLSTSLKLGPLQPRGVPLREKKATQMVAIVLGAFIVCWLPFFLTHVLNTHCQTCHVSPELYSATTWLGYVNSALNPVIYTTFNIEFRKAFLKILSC
assayMetric: AC50

[
  {
    "compound": "Cc1nnc(SCC2=C(C(=O)O)N3C(=O)[C@@H](NC(=O)Cn4cnnn4)[C@H]3SC2)s1",
    "AC50": "> 300 µM"
  },
  {
    "compound": "CCc1cc2c(s1)-n1c(C)nnc1CN=C2c1ccccc1Cl",
    "AC50": "> 30 µM"
  },
  {
    "compound": "CCCC(C)(COC(N)=O)COC(N)=O [MEPROBAMATE]",
    "AC50": "> 30 µM"
  },
  {
    "compound": "Cc1cc(C)nc(NS(=O)(=O)c2ccc(N)cc2)n1",
    "AC50": "> 30 µM"
  },
  {
    "compound": "COc1cc(C(=O)OCc2cccc(COC(=O)c3cc(OC)c(OC)c(OC)c3)n2)cc(OC)c1OC",
    "AC50": "> 30 µM"
  }
]

Lab note: CC(=O)Nc1ccc(CC(=O)O)cc1 gave AC50 of > 30 µM

Summary for this compound, COc1cc(C)c(/C=C/C(C)=C/C=C/C(C)=C/C(=O)O)c(C)c1C : AC50 is > 30 µM

###

The reader will find reported AC50 values listed item by item below.
targetSystem: 5-hydroxytryptamine receptor 1A (Homo sapiens, UniProt P08908); also: assay procedure not described here
Sequence (P08908 whole entry): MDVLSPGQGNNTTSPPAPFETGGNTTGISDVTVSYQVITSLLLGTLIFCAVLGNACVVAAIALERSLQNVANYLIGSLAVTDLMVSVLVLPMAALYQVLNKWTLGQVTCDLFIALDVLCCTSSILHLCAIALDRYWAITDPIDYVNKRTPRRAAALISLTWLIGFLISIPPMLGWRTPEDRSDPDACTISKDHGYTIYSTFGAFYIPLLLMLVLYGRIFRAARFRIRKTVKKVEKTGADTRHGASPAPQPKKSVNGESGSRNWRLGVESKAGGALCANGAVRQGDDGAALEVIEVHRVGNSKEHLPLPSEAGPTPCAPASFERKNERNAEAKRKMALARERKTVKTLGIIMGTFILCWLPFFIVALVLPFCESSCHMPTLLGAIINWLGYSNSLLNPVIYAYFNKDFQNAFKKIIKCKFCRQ

As a guide, the following entries are already answered.
[
  {
    "molecule": "C[C@H](N[C@@H](CCc1ccccc1)C(=O)O)C(=O)N1Cc2ccccc2C[C@H]1C(=O)O",
    "recordedValue": "> 30 µM"
  },
  {
    "molecule": "COc1ccc2c(C(=S)N(C)CC(=O)O)cccc2c1C(F)(F)F",
    "recordedValue": "> 30 µM"
  },
  {
    "molecule": "COc1cc(C)c2c(Oc3cccc(C(F)(F)F)c3)c(OC)cc(NC(C)CCCN)c2n1 (configuration not stated)",
    "recordedValue": "11.3 µM"
  },
  {
    "molecule": "COc1ccc2[nH]c([S+]([O-])Cc3ncc(C)c(OC)c3C)nc2c1 (configuration not stated)",
    "recordedValue": "> 30 µM"
  },
  {
    "molecule": "COC(=O)C[C@](O)(CCCC(C)(C)O)C(=O)O[C@@H]1C(OC)=C[C@]23CCCN2CCc2cc4c(cc2[C@H]13)OCO4 [OMACETAXINE MEPESUCCINATE]",
    "recordedValue": "> 30 µM"
  }
]

Record O=C1Cc2cc(CCN3CCN(c4nsc5ccccc45)CC3)c(Cl)cc2N1 , field AC50: 0.003 µM

So, C[Se]CC[C@H](N)C(=O)O ? Its AC50 was > 30 µM

Short answer for CCN(CC)CCCC(C)Nc1c2ccc(Cl)cc2nc2ccc(OC)cc12 (configuration not stated) : AC50 was 2.26 µM

Query Cc1cc2c(cc1S(N)(=O)=O)S(=O)(=O)CCC2 yields AC50 of > 30 µM

# molecule CC1(C)O[C@@H]2C[C@H]3[C@@H]4C[C@H](F)C5=CC(=O)C=C[C@]5(C)[C@@]4(F)[C@@H](O)C[C@]3(C)[C@]2(C(=O)CO)O1 [FLUOCINOLONE ACETONIDE] ; its AC50 = > 30 µM

Quick note, AC50 for CN(C)c1ccc(O)c2c1C[C@H]1C[C@H]3[C@H](N(C)C)C(O)=C(C(N)=O)C(=O)[C@@]3(O)C(O)=C1C2=O landed at > 30 µM

Lab book: AC50 of Cc1ncc2c(c1O)COC2c1ccc(Cl)cc1 (configuration not stated) noted as > 30 µM
